What growth was measured for each of the following?
- System: SW-620 colon
- assay_notes: NCI-60 one-dose screen, 48 h (100 = growth as untreated, 0 = no growth, -100 = all killed)
- experimental_parameters: 10 µM unless noted
About 83,000 compounds went through this panel and 20% of them were active in at least one assay; those are over-represented in the sample as a whole.
One number for each entry, in %.

Here is how some compounds turned out for growth.
• COc1ccc(-c2nc(SCCC(C)C)nc(N/N=C(/C)c3ccc(N)cc3)c2C#N)cc1 = 95.2
• Cc1ccc(-c2nn(CC(=O)N3CCOCC3)c(N)c2C#N)cc1 = 104
• COc1cc2cc(Oc3ccc(NC(=O)Nc4ccc(Cl)c(Cl)c4)cc3)c(C)nc2cc1OCCN1CCCCC1 = 14.4
• COC(=O)[C@H](C)NC(=O)c1ccc(NC(=O)c2[nH]c(C)c(Cl)c2Cl)c(OCCN)c1 = 102
• Cc1cc2c(C(C)C)c(O)c(O)c(/C=N/O)c2c(O)c1-c1c(C)cc2c(C(C)C)c(O)c(O)c(/C=N/O)c2c1O = 23.2
• CN(C)c1ccc(Cc2cc(-c3ccccc3)nn(C/C(=N/O)c3ccccc3)c2=O)cc1 = 62.1
• C#CCOc1ccc(C2=NN(CCCC)C3N=C(Cl)c4ncn(CCCC)c4N23)cc1OCC#C (stereo unspecified) = 88.7
• CS(=O)(=O)Nc1cc(-c2ccc3ncnc(Nc4cccc(Cl)c4)c3c2)cnc1Cl = 11.5

Please look at the items below and tell me growth for each one, in order.
1. Oc1ccc(C(c2ccc(O)cc2)c2ccc(Cl)cn2)cc1
2. CC(=O)CC(=O)c1ccccc1.[Cu+2]
3. CCOC(=O)CC1CSC(N/N=C/c2ccc(O)cc2)=N1 (stereo unspecified)
4. O=C1C(c2c(O)[nH]c3ncccc23)=Nc2ccccc21
5. Cc1cc(=O)oc2cc(Oc3nc(-c4ccccc4)cn4c(-c5ccccc5)cnc34)ccc12
6. C/C(=N\NC(=O)c1ccc(C(C)(C)C)cc1)c1ccc(O)cc1O
7. C#C[C@]1(O)CC[C@H]2[C@@H]3CC=C4c5sc(-c6ccccc6)nc5CC[C@]4(C)[C@H]3CC[C@@]21C
8. O=c1c2cccc3c(N4CCOCC4)ccc(c32)c2nc3ccccc3n12

1: 106; 2: 103; 3: 98.1; 4: 102; 5: 88.3; 6: 29.9; 7: 89.9; 8: 103
